assay: protein stability index of a GFP-peptide fusion (yeast GPS) (PSI 1-4); higher = more stable; sorted into four equal gates, so the index is relative within each strain; conditions: doa10∆
// n strictly below 3 in protein stability index; y otherwise

- chain: "SESQLNSTLKKVESQET [YCS4]"
  class name: "n"
- chain: "VTLKGAKALESLASCLR [POP1]"
  class name: "y"
- chain: "GEITFDGIGGLTEQIRE [RPT4]"
  class name: "y"
- chain: "SLKNTDALLNSTTEHIN [YJL039C/NUP192]"
  class name: "n"
- chain: "NENNSNGGEDTSVENEG [REC8]"
  class name: "y"
- chain: "GKLVVSQEMVPRYFSEA [SIR3]"
  class name: "y"
- chain: "EVSALVRSLPKEEQPKQ [PRP8]"
  class name: "n"
- chain: "AEEFDFNVPVVSKQLGN [YAR002W/NUP60]"
  class name: "n"
- chain: "ILDFGPGGASGLGVLTH [FAS1]"
  class name: "n"
- chain: "KQERSKQERLKENEESL [PRP28]"
  class name: "y"
- chain: "DKQDGTAKPAFSFGAKP [YJL041W/NSP1]"
  class name: "y"
- chain: "RFMRFLADRDEFIQDSA [ECM29]"
  class name: "n"
- chain: "EQKGQMAKKEGTPKTDS [MED4]"
  class name: "y"
- chain: "LLLSRVRADDLSTRFNI [RRP43]"
  class name: "y"
- chain: "VLCTRLRLSNFFTIDHF [SIR2]"
  class name: "n"
- chain: "PRFLNKQERSKQERLKE [PRP28]"
  class name: "n"
- chain: "VEYNLFTNRSTMMANFE [BRN1]"
  class name: "n"
- chain: "YSRILKSMGRKCFDDIE [YCG1]"
  class name: "y"
- chain: "VFPSSILDITDEELVSH [RPP0]"
  class name: "n"
- chain: "MSSTNGNAPATPSSDQN [SOH1]"
  class name: "y"
- chain: "ENSGKEMDEKSYEKNED [LIN1]"
  class name: "y"
- chain: "PIPSKPTLFDLAFNYIT [SRP68]"
  class name: "n"
- chain: "NKLGNKRLTEDERIEKE [CDC53]"
  class name: "n"
- chain: "FRGARKNKGLVVSPYDY [DIB1]"
  class name: "n"
- chain: "EELRDLYQTYHVLVGDL [FAS1]"
  class name: "n"
- chain: "PSYAERQSSDESDNYRL [YML031W/NDC1]"
  class name: "n"
- chain: "YGNPTSKESWRYDWYQP [RTT102]"
  class name: "n"
- chain: "LFRIFSMSEEFKYVSVR [BRR2]"
  class name: "n"
- chain: "CVDDNSKISFIDEDKLY [SSN2]"
  class name: "y"
- chain: "ATQVKTDNTVDKFDFYK [RPT3]"
  class name: "y"
- chain: "SNVNSDIYFKLKKLEKE [RPT3]"
  class name: "y"
- chain: "VSGDLNPIHVSRHFASY [FAS1]"
  class name: "n"
